- Tested on: 280 human cancer cell lines
- protocolDetails: OncoPanel cell proliferation assay (10-day)
- Assay type: cell-based
- conditionLabel: Homo sapiens, NCI-H295R, Endocrine - Adrenal gland; read-out: Cell Count EC50
measure: pEC50
Keep in mind that pEC50 stands for -log10 of concentration in molar terms.

Exercise: Tell me reported pEC50 for CC(C)=CCC[C@H](C)[C@@H]1CC[C@@H](C)c2c1cc(C)c(O)c2O [Compound 4, 7,8-dihydroxyserrulat-14-ene] , tested with 280 human cancer cell lines.
Solution: 4.59

* * *

- testSystem: GCN5L2(h) (Homo sapiens, UniProt Q92830)
- Sequence (Q92830 whole entry): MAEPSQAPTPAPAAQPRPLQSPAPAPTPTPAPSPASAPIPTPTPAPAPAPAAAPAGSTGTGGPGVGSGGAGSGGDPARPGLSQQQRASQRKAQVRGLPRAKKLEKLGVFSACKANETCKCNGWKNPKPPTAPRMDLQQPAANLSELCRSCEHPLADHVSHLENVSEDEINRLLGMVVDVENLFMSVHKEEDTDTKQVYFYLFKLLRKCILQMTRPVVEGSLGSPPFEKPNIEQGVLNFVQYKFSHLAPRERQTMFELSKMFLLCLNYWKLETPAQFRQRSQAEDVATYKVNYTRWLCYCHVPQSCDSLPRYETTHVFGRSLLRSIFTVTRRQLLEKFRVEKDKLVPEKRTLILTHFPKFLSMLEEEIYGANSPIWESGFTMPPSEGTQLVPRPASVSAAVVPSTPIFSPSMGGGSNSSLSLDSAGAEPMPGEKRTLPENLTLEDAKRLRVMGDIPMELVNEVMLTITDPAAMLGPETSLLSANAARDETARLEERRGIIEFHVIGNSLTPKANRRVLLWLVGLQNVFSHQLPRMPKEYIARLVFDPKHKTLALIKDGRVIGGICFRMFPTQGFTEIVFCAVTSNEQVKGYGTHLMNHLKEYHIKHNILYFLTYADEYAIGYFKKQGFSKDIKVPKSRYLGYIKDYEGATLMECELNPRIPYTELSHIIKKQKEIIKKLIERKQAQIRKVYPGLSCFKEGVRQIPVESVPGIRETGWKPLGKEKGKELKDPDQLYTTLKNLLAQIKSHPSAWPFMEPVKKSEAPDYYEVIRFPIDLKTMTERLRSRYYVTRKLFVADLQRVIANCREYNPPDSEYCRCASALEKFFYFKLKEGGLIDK
- protocolDetails: Epigenetic enzyme assay, Histone acetyltransferases (HATs)
- Type: biochemical
- conditionLabel: Table 10; read-out: Reference IC50
measure: IC50 (µM)
Quick note: give the figure in µM, leave out the unit.

Exercise: I would be grateful if you could share the reported IC50 for CCCCCCCCCCCCCCCc1cccc(O)c1C(=O)O [Anacardic Acid, reference compound] .
Solution: 4.7

* * *

- System: 280 human cancer cell lines
- protocolDetails: OncoPanel cell proliferation assay (10-day)
- Format: cell-based
- conditionLabel: Homo sapiens, HCT-116, HCT-116, Colon; read-out: Cell Count IC50
measure: IC50 (µM)
Quick note: give the figure in µM, leave out the unit.

Reference set (2 entries):
| molecule | endpointUnit | IC50 |
| --- | --- | --- |
| CC(C)=CCC[C@H](C)[C@@H]1CC[C@@H](C)c2c1cc(C)c(O)c2O [Compound 4, 7,8-dihydroxyserrulat-14-ene] | µM | 10.3 |
| CC(C)=CCC[C@H](CO)[C@@H]1CC[C@@H](C)c2c1cc(C)c(O)c2O [Compound 1, 7,8,18-trihydroxyserrulat-14-ene] | µM | 1.75 |

Okay, now this molecule:
Exercise: I would be grateful if you could share the reported IC50 for CC(C)=CCC[C@@H]1C(O)Oc2c(C)cc(O)c3c2[C@H]1CC[C@H]3C (stereo partly drawn) [Compound 2, 5,18-epoxyserrulat-14-en-8,18-diol] .
Solution: 6.68

* * *

- testSystem: receptors (Bioprint panel) (Homo sapiens, UniProt P28335)
- Sequence (P28335 33-458): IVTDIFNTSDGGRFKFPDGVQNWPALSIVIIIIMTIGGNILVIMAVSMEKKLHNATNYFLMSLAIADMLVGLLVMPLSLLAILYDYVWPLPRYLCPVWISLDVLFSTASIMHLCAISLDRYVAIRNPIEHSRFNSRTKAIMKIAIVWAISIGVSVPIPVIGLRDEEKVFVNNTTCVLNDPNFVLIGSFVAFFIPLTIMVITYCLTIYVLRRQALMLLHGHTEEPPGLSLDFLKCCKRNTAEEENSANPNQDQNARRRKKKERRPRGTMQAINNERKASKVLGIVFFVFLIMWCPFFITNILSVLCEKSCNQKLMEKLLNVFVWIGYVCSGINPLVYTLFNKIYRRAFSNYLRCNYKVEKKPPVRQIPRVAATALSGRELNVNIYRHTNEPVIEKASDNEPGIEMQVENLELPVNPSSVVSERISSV
- protocolDetails: biochemical
- Type: binding
- conditionLabel: read-out: Reference Compound IC50
measure: IC50 (nM)
Quick note: give the figure in nM, leave out the unit.

Exercise: I would be grateful if you could share the reported IC50 for COc1cc(CC(C)N)c(OC)cc1I (racemic) [(±)DOI] .
Solution: 0.24

* * *

- Test system: 280 human cancer cell lines
- protocolDetails: OncoPanel cell proliferation assay (10-day)
- Type: cell-based
- conditionLabel: Homo sapiens, SNU1, SNU-1, Stomach; read-out: Cell Count EC50
# reported pEC50; entries follow
Keep in mind that pEC50 stands for -log10 of concentration in molar terms.

| compound | pEC50 |
| --- | --- |
| CC(C)=CCC[C@H](CO)[C@@H]1CC[C@@H](C)c2c1cc(C)c(O)c2O [Compound 1, 7,8,18-trihydroxyserrulat-14-ene] | 5.90 |
| CC(C)=CCC[C@H](C)[C@@H]1CC[C@@H](C)c2c1cc(C)c(O)c2O [Compound 4, 7,8-dihydroxyserrulat-14-ene] | 5.16 |

Okay, now this compound:
Exercise: I would be grateful if you could share the reported pEC50 for CC(C)=CCC[C@@H]1C(O)Oc2c(C)cc(O)c3c2[C@H]1CC[C@H]3C (stereo partly drawn) [Compound 2, 5,18-epoxyserrulat-14-en-8,18-diol] .
Solution: 5.07
